Experiment: chemical genetic growth profiling, strain panel (AID 1159580);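 note: tested at 20 µM; growth read once vehicle control cultures reached saturation at 30 °C; 1 = growth at the plate median or of vehicle wells; lower values mean less growth of the strain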
Conditions: S. cerevisiae deletion strains, growth OD, locus YOR080W, strain dia2, stronger effect = lower value
The campaign covered roughly 5,500 compounds. About 2,000 (36%) were called active. Another 18% or so got no clear call; they are omitted. The list shows a part of the results.
Parameter Measured: normalized growth

NCCc1cnc[nH]1	1.01
O=C1NCC2(CCN(CCc3ccccc3)CC2)O1	0.988
COC(=O)/C=C/C(C)=C/C=C/C(C)=C/C=C/C=C(C)/C=C/C=C(C)/C=C/C(=O)O	1.02
Cc1ccccc1C(OCCN(C)C)c1ccccc1 (stereo not given)	0.996
COC(=O)c1cc(=O)c(O)c2c(O)c(O)ccc2c1	0.983
